Origin of the recorded values: ChEMBL document CHEMBL1201862

System: SNB-75
Method Notes: NCI tumour cell line growth inhibition, 48 h
The source made the active and inactive calls. Cut-off read from the data, not from the text of the source: active = GI50 up to about 1.1 µM and inactive = higher.
# Lookup of reported GI50 keyed by entry
Readout: GI50

Compound: CS/C(=N\S(=O)(=O)c1ccc(Cl)cc1)NCCCCN/C(=N/S(=O)(=O)c1ccc(Cl)cc1)SC
Assay Value: > 10 µM (inactive)
//
Compound: OC(c1ccccc1)C1CC2C=CC1C2 (stereo unspecified)
Assay Value: > 100 µM (inactive)
//
Compound: CCCCCCCCCCCCCCCCNc1cccc2ccccc12
Assay Value: > 100 µM (inactive)
//
Compound: COC(=O)CCC1(NS(=O)(=O)c2ccc(C)cc2)CCC(C(C)(C)C)CC1 (stereo unspecified)
Assay Value: 14.3 µM (inactive)
//
Compound: CC(=O)Nc1ccc(-c2nnc(SCC(=O)Nc3cccc([N+](=O)[O-])c3)o2)cc1
Assay Value: 17.8 µM (inactive)
//
Compound: COC(=O)c1cc(S(=O)(=O)NC2=NNC(C)CN2)c(S)cc1Cl (stereo unspecified)
Assay Value: 24.7 µM (inactive)
//
Compound: Cc1ccc(NC(=O)/C(Cc2nc3ccc([N+](=O)[O-])cc3nc2O)=N\NC(=O)C[n+]2ccccc2)c(C)c1
Assay Value: 97.3 µM (inactive)
//
Compound: COc1ccc(/C=C2\N=C(c3ccccc3)OC2=O)cc1OC(C)=O
Assay Value: 52.5 µM (inactive)
//
Compound: c1ccc(C2CC(c3ccc4ccccc4c3)=Nc3ccccc3S2)cc1 (stereo unspecified)
Assay Value: 15.6 µM (inactive)
//
Compound: COc1ccc(CCNC2=CC(=O)c3ncccc3C2=O)cc1OC
Assay Value: 0.748 µM (active)
//
Compound: c1ccc2c(c1)[nH]c1c2nc2ncccn21
Assay Value: > 100 µM (inactive)

---

Test system: SK-MEL-5
Method Notes: NCI tumour cell line growth inhibition, 48 h
The source made the active and inactive calls. Rule as the data show it: active = GI50 up to about 1.1 µM and inactive = higher.
Labels: active, inactive

Compound: O=C(O)c1cccc(OCCOc2cccc(C(=O)O)c2[N+](=O)[O-])c1[N+](=O)[O-]
Group Label: inactive
//
Compound: OC12c3ccccc3C1CCCCCCCCCC21OCCCO1 (centres undefined)
Group Label: inactive
//
Compound: CC(=O)NC(=N/N=C1/C(=O)Nc2ccc(C)cc21)NC(C)=O
Group Label: inactive
//
Compound: O=C(/C=N/O)Nc1ccc(Cl)c(I)c1
Group Label: inactive
//
Compound: COc1cc(OC)c2c(=O)c(O)c(-c3ccc(OC)c(OC)c3)oc2c1
Group Label: inactive
//
Compound: O=C1CC(O)c2c(Br)sc(Br)c21 (centres undefined)
Group Label: inactive
//
Compound: O=[N+]([O-])c1ccccc1S(=O)(=O)c1ccccc1
Group Label: inactive
//
Compound: Cc1coc2c1C(OC(=O)C(C)C)C1(C)C(C)CCC(O)C1C2=O (centres undefined)
Group Label: inactive
//
Compound: Cc1cc2c(cc1C)[n+]([O-])c(C(=O)/C=C/c1ccccc1Cl)c(C)[n+]2[O-]
Group Label: inactive
//
Compound: O=C(NCCCNCCNC(=O)c1cc(-c2ccccc2)nc2ccccc12)c1cc(-c2ccccc2)nc2ccccc12
Group Label: inactive
//
Compound: CCc1nc(N)nc(N)c1-c1ccc2nnn(O)c2c1
Group Label: inactive
//
Compound: COc1cc(C2c3cc4c(cc3[C@@H](Nc3ccc5c(c3)OCCO5)C3COC(=O)[C@H]23)OCO4)cc(OC)c1O (some centres undefined)
Group Label: active
//
Compound: C[N+]1(C)C/C(=C\c2ccccc2)C(=O)/C(=C/c2ccccc2)C1
Group Label: inactive
//
Compound: CC(=O)CC[N+](C)(C)C
Group Label: inactive
//
Compound: CCOC(=O)C1=C(C)C2C3C(=O)OC(=O)C3C1(C)C1C(=O)OC(=O)C21 (centres undefined)
Group Label: inactive
//
Compound: CCOc1cc(/C=N/c2ccc(Oc3ccc(Cl)cc3)c(Cl)c2)ccc1O
Group Label: inactive
//
Compound: O=c1c2ccccc2c2c1c1c3ccccc3c(=O)c1c1c3ccccc3c(=O)c21
Group Label: inactive
//
Compound: Clc1cccc(C2N3CCCCC3[C@@H]3c4[nH]c5ccccc5c4CCN23)c1 (some centres undefined)
Group Label: inactive
//
Compound: CN(C)CC[N+](C)(C)[BH2-]C(O)O
Group Label: inactive
//
Compound: S=C=NC1CCC(c2cc3ccccc3s2)(N2CCCCC2)CC1 (centres undefined)
Group Label: inactive
//
Compound: O=C1c2ccccc2C2(Br)C(=O)c3ccccc3C12 (centres undefined)
Group Label: inactive
//
Compound: O=C(NCc1ccccc1)c1cc2ccccc2o/c1=N\c1ccccc1F
Group Label: inactive
//
Compound: Nc1c(C(=O)N/N=C/c2ccc(Cl)cc2)sc(=S)n1-c1ccccc1
Group Label: inactive
//
Compound: C[C@@H]1C[C@@H]2OC(=O)[C@]3(C)[C@H]2[C@@H](OC3(C)O)[C@]2(C)C(=O)C=C[C@@H]12 (some centres undefined)
Group Label: inactive

---

Test system: HL-60
Method Notes: NCI tumour cell line growth inhibition, 48 h
Calls of active or inactive are those of the source. Rule as the data show it: active = GI50 up to about 1.1 µM and inactive = higher.
Labels: active, inactive

Compound: O=C(CCc1cc(O)cc(O)c1)NCCc1cc(OCc2ccccc2)cc(OCc2ccccc2)c1
Group Label: inactive
//
Compound: C[C@@H](Oc1ccc(Oc2cnc3ccc(Cl)cc3n2)cc1)C(=O)O [R(+)XK469]
Group Label: inactive
//
Compound: COc1cc(C2c3cc4c(cc3OC(C)(N3CCCC3)C2C)OCO4)cc(OC)c1OC (stereo not given)
Group Label: active
//
Compound: O=C(Nc1nc2ncn(CC(COc3ccccc3)OC(=O)c3ccccc3)c2c(=O)[nH]1)c1ccccc1 (stereo not given)
Group Label: active
//
Compound: C(CCCCc1nnc(N2CCOCC2)o1)CCCc1nnc(N2CCOCC2)o1
Group Label: inactive

---

Test system: SF-268
Method Notes: NCI tumour cell line growth inhibition, 48 h
The source made the active and inactive calls. No stated cut-off is given here; in the data, active = GI50 up to about 1.1 µM and inactive = higher.
Labels: active, inactive

Compound: FC(F)(F)c1ccccc1N1CCN(c2nc(-c3cccs3)nc3ccc(Br)cc23)CC1
Group Label: inactive
--
Compound: CCN(CC)Cc1ccccc1CC(=O)N1c2ccccc2C(=O)Nc2cccnc21
Group Label: inactive
--
Compound: CC(OC1CC(=O)CC2C(=O)C=CC(=O)C12)c1ccccc1 (stereo unspecified)
Group Label: inactive
--
Compound: CCOC(=O)Cn1c(C(F)(F)F)nc2nc(Cl)c(Cl)nc21
Group Label: inactive
--
Compound: CC[C@H](C)[C@H]1NC(=O)[C@@H](NC(=O)[C@@H](CC(C)C)N(C)C(=O)C2CCCN2C(=O)[C@H](C)O)[C@@H](C)OC(=O)[C@H](Cc2ccccc2)N(C)C(=O)[C@@H]2CCCN2C(=O)[C@H](CC(C)C)NC(=O)[C@@H](C)C(=O)[C@H](C(C)C)OC(=O)C[C@@H]1O (stereo partly specified)
Group Label: active
--
Compound: COc1cc(Br)c(/C=N\c2cccc3cc(OC)c(OC)cc23)cc1OC
Group Label: inactive
--
Compound: COc1cc(C2c3cc4c(cc3[C@@H](Nc3ccc5c(c3)OCCO5)C3COC(=O)[C@H]23)OCO4)cc(OC)c1O (stereo partly specified)
Group Label: active
--
Compound: Oc1cccc(/C=N/N=c2/[nH][nH]/c(=N/N=C/c3cccc(O)c3)c3ccccc23)c1
Group Label: inactive
--
Compound: O=CC(I)=C(c1ccccc1)c1ccccc1
Group Label: inactive
--
Compound: O=C(O)c1ccc(Nc2nc3cc(C(F)(F)F)ccc3n3cccc23)cc1
Group Label: inactive
--
Compound: COc1ccc([C@H]2CC(=O)C[C@H](c3ccc(OC)cc3)C23C(=O)c2ccccc2C3=O)cc1
Group Label: inactive
--
Compound: Oc1ccc(-c2nc(-c3cccnc3)c(-c3ccc(Cl)cc3)[nH]2)cc1
Group Label: inactive
--
Compound: CN(C)C(=S)/N=c1\ssc(=S)n1Cc1ccco1
Group Label: inactive
--
Compound: CCOc1cc(/C=N/c2ccc(Oc3ccc(Cl)cc3)c(Cl)c2)ccc1O
Group Label: inactive
--
Compound: CC(C)(C)OC(=O)NC(Cc1ccc(OCc2ccccc2)cn1)C(N)=O (stereo unspecified)
Group Label: inactive
--
Compound: CCCCCCCCCCCCCCCCNc1cccc2ccccc12
Group Label: inactive
--
Compound: Cc1cc2c(cc1C)[n+]([O-])c(C(=O)/C=C/c1ccccc1Cl)c(C)[n+]2[O-]
Group Label: inactive
--
Compound: CCOC(=O)c1c(Br)c(-c2ccc(OC)cc2)c(Br)n1C
Group Label: inactive
--
Compound: Nc1ncnn2c(C3OC(CO)C(O)C3O)ccc12 (stereo unspecified)
Group Label: active
--
Compound: Cc1ccc(S(=O)(=O)NCCCSCCO)cc1
Group Label: inactive
--
Compound: O=C(N/C(=C\c1ccc([N+](=O)[O-])cc1)c1nc2ccccc2[nH]1)c1ccccc1
Group Label: inactive
--
Compound: CC(SC(=S)N1CCCC1)C(=O)Nc1nnc(-c2ccc(Cl)cc2)o1 (stereo unspecified)
Group Label: inactive
--
Compound: CCCCCCCCCc1c(Cl)nc(Cl)nc1Cl
Group Label: inactive
--
Compound: CC(Cl)(/C=C/Cl)C(Cl)/C=C/C(Cl)(CCl)CBr (stereo unspecified)
Group Label: inactive
--
Compound: CC(C)[Si](OCC/C=C/C1CCC(=O)C1C(O)C1CCCCC1)(C(C)C)C(C)C (stereo unspecified)
Group Label: inactive
--
Compound: Cc1cc(O)c(C=O)c(C)c1CCC1(C)C=Cc2cc(O)ccc2O1 (stereo unspecified)
Group Label: inactive
--
Compound: Cn1c(=O)c2[nH]c(N=O)nc2n(C)c1=O
Group Label: inactive
--
Compound: NC1=CN(Cc2ccccc2)C2=N/C(=C\c3ccccc3)C(=O)N12
Group Label: inactive
--
Compound: O=C(Nc1ccc(Cl)cc1Cl)C1C(=O)C(=O)N(c2ccc(Cl)cc2Cl)C1=O (stereo unspecified)
Group Label: inactive
--
Compound: CN(CCN(C)C(=O)CCn1ccc(=O)[nH]c1=O)C(=O)CCn1ccc(=O)[nH]c1=O
Group Label: inactive
--
Compound: CSc1ccc2c(cc1=O)C(NC(=O)c1cc(O)c(OC(=O)O)c(O)c1)CCc1cc(O)c(O)c(O)c1-2 (stereo unspecified)
Group Label: inactive
--
Compound: CC1C2(C)OCC(C#N)(C(=N)O2)C1(C#N)C#N (stereo unspecified)
Group Label: inactive
--
Compound: COC(=O)c1c(OC(C)=O)ccc2c1c1cc3ccccc3c(OC(C)=O)c1n2C
Group Label: inactive
--
Compound: O=C(Nc1sccc1S(=O)(=O)c1ccc(Cl)cc1)c1ccccc1
Group Label: inactive
--
Compound: CC(C)(C)c1c2c(c(C(C)(C)C)c3c1OCN(Cc1ccccc1)C3)OCN(Cc1ccccc1)C2
Group Label: inactive
--
Compound: C=CCc1cccc2cc(C(=O)NCc3ccccc3)c(=N)oc12
Group Label: inactive
--
Compound: CCc1nc(N)nc(N)c1-c1ccc2nnn(O)c2c1
Group Label: inactive
--
Compound: c1ccc(C2OCC(OC3CCCCO3)CO2)cc1 (stereo unspecified)
Group Label: inactive
--
Compound: COC(=O)C1(C(C)C)CCc2c(OC)ccc(OC)c2C1=O (stereo unspecified)
Group Label: inactive
--
Compound: CCO/N=C(/N)c1ncn(Cc2ccccc2)c1NCC(OCC)OCC
Group Label: inactive
--
Compound: CC(C)CCCC(C)[C@H]1CC[C@H]2NCCCC[C@]12C (stereo partly specified)
Group Label: inactive
